assayed_target: RDH10 protein (Homo sapiens)
Sequence (Q8IZV5 whole entry, species assumed): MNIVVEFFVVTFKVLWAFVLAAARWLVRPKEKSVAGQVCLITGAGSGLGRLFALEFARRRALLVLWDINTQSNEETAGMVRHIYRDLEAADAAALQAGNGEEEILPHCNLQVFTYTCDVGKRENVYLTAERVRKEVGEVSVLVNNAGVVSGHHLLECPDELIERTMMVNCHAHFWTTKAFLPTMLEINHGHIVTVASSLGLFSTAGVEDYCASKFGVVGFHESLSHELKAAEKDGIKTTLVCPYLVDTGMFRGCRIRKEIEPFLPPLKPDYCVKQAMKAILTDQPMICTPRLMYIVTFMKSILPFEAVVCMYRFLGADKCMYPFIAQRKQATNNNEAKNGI
test_protocol: Surface plasmon resonance (SPR), Biacore T200
Format: binding
test_settings: RDH10 immobilized on CM5 chip; 25S-Antcin C 0.78-25 μM; FIG. 15B
measured_metric: Kd (µM)
Field format: number, assumed µM, no unit text.

Exercise: Recorded Kd for C=C(CC[C@@H](C)[C@H]1CC[C@H]2C3=C(C(=O)C[C@]12C)[C@@]1(C)CCC(=O)[C@@H](C)[C@@H]1C[C@@H]3O)[C@H](C)C(=O)O [25S-Antcin C] , please?
Solution: 8.31
